All values here come from PubChem BioAssay (NCI).

Test system: DMS 114 small cell lung
Assay: NCI tumour cell line growth inhibition, 48 h
The threshold is inclusive: TGI of exactly 20 µM counts as rule met; values below receive rule not met.

CCOc1ccc(/C=C/C(=O)c2sc(NNC(C)=O)nc2C)cc1 : rule met
N#Cc1cccc(C2SCc3nc4ccccc4n32)c1 (configuration not stated) : rule met

Data request: Answer whether TGI of O=C(c1ccccc1)N1CCc2c([nH]c3ccccc23)C1 is greater than or equal to 20 µM.
Data returned: rule met

Data request: Answer whether TGI of N#CC1(C2CC(=O)N(c3ccccc3)C2=O)CCCCC1=O (configuration not stated) is greater than or equal to 20 µM.
Data returned: rule met

###

Test system: ACHN renal
Experiment: NCI tumour cell line growth inhibition, 48 h
measuredAttribute: TGI (µM)
Entry rule: numbers only, all in µM.

FC(F)(F)c1ccc2c(c1)nc(Cc1ccc(Cl)cc1)n2CC1CCCN2CCCCC12 (stereo not given) : 23.6
Cc1n[nH]c(C)c1-c1c(C)n[nH]c1C : 2.88
COc1cc(/C=C2\C(=O)Nc3ccc(O)cc32)cc(OC)c1OC : 78.6

Could you now look at the following compound, please?
Data request: Given CN(C)CCCn1c2c(c3ccc(N4CCNCC4)cc3c1=O)C(=O)c1ccccc1-2 , respond with its TGI.
Data returned: 2.63

###

Test system: NCI-H460 lung
Assay: NCI tumour cell line growth inhibition, 48 h
measuredAttribute: TGI

CN1CC[C@H](N(C)C(=O)N2CC(c3cc(F)ccc3F)=C[C@@]2(CO)c2ccccc2)[C@H](F)C1 : > 100 µM

Data request: Given C=CC(C)(C)[C@@]12CC3C(=O)N[C@@H](Cc4ccccc4)C(=O)N3[C@@H]1N(C(C)=O)c1ccccc12 (stereo partly specified) , respond with its TGI.
Data returned: > 100 µM

Data request: Given O=c1[nH]c2c(ccc3cnccc32)c2c1CCC2 , respond with its TGI.
Data returned: > 28.9 µM

###

Documented TGI across a set of compounds
System: A549 NSCLC
Assay: NCI tumour cell line growth inhibition, 48 h

Some entries whose results are on file:
C=CC(C)(C)[C@@]12CC3C(=O)N[C@@H](Cc4ccccc4)C(=O)N3[C@@H]1N(C(C)=O)c1ccccc12 (stereo not given in full) : > 100 µM
N#CSc1c[nH]c2cccc(/C=C/C(=O)/C=C(O)/C=C/c3cccc4[nH]cc(SC#N)c34)c12 : 2.78 µM
O=C1N(c2ccccc2)C2(O)C(=O)c3ccccc3C2(O)N1c1ccccc1 (stereo not given) : > 100 µM
CN(C)CCCn1c2c(c3ccc(N4CCNCC4)cc3c1=O)C(=O)c1ccccc1-2 : 2.23 µM
CC(C)c1cc(C(C)C)c(S(=O)(=O)N/N=C2\CC3CCC2(C)C3(C)C)c(C(C)C)c1 (stereo not given) : > 100 µM

Data request: Given Nc1nc(NCc2ccccc2)cc(NCc2ccccc2)n1 , respond with its TGI.
Data returned: 92 µM

Data request: Given COc1ccc(Cc2c3cc(OC)c(OC)cc3cc[n+]2C)cc1 , respond with its TGI.
Data returned: > 46.5 µM

Data request: Given c1ccc2sc(C3(N4CCCCCC4)CCCCC3)cc2c1 , respond with its TGI.
Data returned: > 100 µM

Data request: Given CCc1ccc2cc3c(ccc4ccccc43)c3c2c1CC3 , respond with its TGI.
Data returned: > 100 µM

Data request: Given COC(=O)c1nc2n(n1)-c1ccccc1C(=O)N(Cc1ccccc1)C2 , respond with its TGI.
Data returned: > 100 µM

Data request: Given O=C(c1ccccc1)N1CCc2c([nH]c3ccccc23)C1 , respond with its TGI.
Data returned: > 100 µM

Data request: Given COc1cc(Br)c(C2OCCCO2)cc1OCc1ccccc1 , respond with its TGI.
Data returned: > 100 µM

Data request: Given BrC(/C=N/Nc1nnc(-c2ccccc2)c(-c2ccccc2)n1)C(Br)c1ccccc1 (stereo not given) , respond with its TGI.
Data returned: > 100 µM

Data request: Given COc1ccc(CCN2C(=O)C(=O)C(C(=O)c3ccccc3)C2c2ccccc2)cc1OC (stereo not given) , respond with its TGI.
Data returned: > 100 µM

Data request: Given C=C(CN1CCc2ccccc2C1)c1ccc(C(=O)Nc2cccc(N)c2)cc1 , respond with its TGI.
Data returned: 61.2 µM

Data request: Given C/C(=N\NC(N)=S)c1ccc(Oc2ccccc2)cc1 , respond with its TGI.
Data returned: 74.4 µM

Data request: Given COc1cccc(O)c1-c1cc(=O)c2c(O)c(OC)c(OC)c(OC)c2o1 , respond with its TGI.
Data returned: > 100 µM

Data request: Given C=CN(C(=O)N1CCN(c2cc3c(cc2F)c(=O)c(C(=O)O)cn3C2CC2)CC1)c1nc(-c2ccc(C)cc2)cs1 , respond with its TGI.
Data returned: > 100 µM

Data request: Given C[C@H](O)CCC(=O)c1ccoc1 , respond with its TGI.
Data returned: > 100 µM

Data request: Given C=C(C)[C@@H]1CC[C@]2(C(=O)OC)CC[C@]3(C)[C@H](CC[C@@H]4[C@@]5(C)CC/C(=N\OCCC(=NCCC#N)NOCCC#N)C(C)(C)[C@@H]5CC[C@]43C)[C@@H]12 , respond with its TGI.
Data returned: > 50 µM

Data request: Given O=C(/C=C/c1c[nH]c2ccccc12)c1ccccc1O , respond with its TGI.
Data returned: 24.5 µM

Data request: Given O=C1OCC2=C1C(c1ccc(Cl)cc1)c1cc3c(cc1O2)OCO3 (stereo not given) , respond with its TGI.
Data returned: > 100 µM

Data request: Given Cc1c(Cl)ccc2[s+]snc12 , respond with its TGI.
Data returned: > 100 µM

Data request: Given CC(=O)Nc1ccc2c3c(cc(O)c2c1)N(C(=O)CCCCCCC(=O)Nc1ccc2c4c(cc(O)c2c1)N(C(=O)OC(C)(C)C)CC4CCl)CC3CCl (stereo not given) , respond with its TGI.
Data returned: > 32.3 µM

Data request: Given CN(C)CCC(C#N)(c1ccccc1)c1ccccc1 , respond with its TGI.
Data returned: > 100 µM
